FYI, the data here is from patent US12240838B2.

# subject.of.test: BTK (Homo sapiens (Human), UniProt Q06187)
# Sequence (Q06187 whole entry): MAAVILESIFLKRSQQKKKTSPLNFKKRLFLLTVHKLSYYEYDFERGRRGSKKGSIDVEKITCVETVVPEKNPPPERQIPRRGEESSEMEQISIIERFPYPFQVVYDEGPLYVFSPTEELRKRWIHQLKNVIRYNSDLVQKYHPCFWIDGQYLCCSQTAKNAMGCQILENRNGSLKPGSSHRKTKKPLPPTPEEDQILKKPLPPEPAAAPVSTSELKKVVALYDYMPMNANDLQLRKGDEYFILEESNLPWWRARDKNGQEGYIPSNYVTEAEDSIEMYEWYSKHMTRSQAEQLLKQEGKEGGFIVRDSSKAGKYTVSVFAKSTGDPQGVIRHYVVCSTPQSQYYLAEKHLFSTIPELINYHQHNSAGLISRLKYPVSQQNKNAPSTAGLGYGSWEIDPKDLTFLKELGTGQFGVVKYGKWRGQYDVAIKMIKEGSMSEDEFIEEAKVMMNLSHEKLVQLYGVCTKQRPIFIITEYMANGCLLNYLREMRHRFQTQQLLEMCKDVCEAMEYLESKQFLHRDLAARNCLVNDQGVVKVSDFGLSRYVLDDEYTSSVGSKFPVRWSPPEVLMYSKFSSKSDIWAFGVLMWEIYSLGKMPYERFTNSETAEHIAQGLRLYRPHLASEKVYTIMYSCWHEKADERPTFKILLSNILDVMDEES
# method: In Vitro PD Assay in Human Whole Blood (pBTK assay)
# Type: cell-based
# study.conditions: 37° C. for 30 min, 50% inhibition of ECL signal
# Method: Human heparinized venous blood was purchased from Bioreclamation, Inc. or SeraCare Life Sciences and shipped overnight. Whole blood was aliquoted into 96-well plate and “spiked” with serial dilutions of test compound in DMSO or with DMSO without drug. The final concentration of DMSO in all wells was 0.1%. The plate was incubated at 37° C. for 30 min. […]
value.type: IC50

Reference set (6 entries):
• Cc1cc(-c2ccnc(NC(=O)[C@@H]3C[C@H]3C)c2)ccc1CNC(=O)c1noc(C(C)(C)C)n1 [Compound 6] = ≤ 100 nM
• CC(C)(C)c1nc(C(=O)NCc2ccc(-c3ccnc(NC(=O)C4CC4)c3)c(F)c2C2CC2)no1 [Compound 33] = 500 to 10000 nM
• CC1(c2nc(C(=O)NCc3ccc(-c4ccnc(NC(=O)C5CC5)c4)c(F)c3Cl)no2)CC1 [Compound 59] = 500 to 10000 nM
• CC(C)(C)c1nc(C(=O)N[C@@H]2CCCOc3cc(-c4ccnc(NC(=O)C5CC5)c4)ccc32)no1 [Compound 54] = 100 to 500 nM
• Cc1cc(-c2ccnc(NC(=O)C3CC34CCC4)c2)ccc1CNC(=O)c1noc(C(C)(C)C)n1 (stereo not shown) [Compound 36] = > 10000 nM
• CC(C)(C)c1nc(C(=O)N[C@@H]2CCN(CC(F)(F)F)Cc3cc(-c4ccnc(NC(=O)C5CC5)c4)ccc32)no1 [Compound 10] = ≤ 100 nM

Next, consider the following compound.
Assay BTK (Homo sapiens (Human), UniProt Q06187), sample CC(C)(C)c1noc(C(=O)N[C@@H]2CCCCc3cc(-c4ccnc(NC(=O)[C@@H]5CC5(C)C)c4)ccc32)n1 [Compound 45] , IC50 read: > 10000 nM
